// Cytochrome P450 2D6 (Homo sapiens, UniProt P10635) pIC50 records
pIC50: −log10 of the molar value.

# compound, pIC50
data = [
    ("C[C@@H]1CC(=O)Nc2ncnc(N3CCN(C(=O)[C@H](CNC4CC4)c4ccc(Cl)cc4)[C@@H]4C[C@@H]43)c21", "< 4.52"),
]

Enter pIC50 (test system Cytochrome P450 2D6 (Homo sapiens, UniProt P10635)) for C[C@@H]1CC(=O)Nc2ncnc(N3CCN(C(=O)[C@H](CNC4C5COCC54)c4ccc(Cl)cc4)[C@@H]4C[C@@H]43)c21 (some centres not stated)
< 4.52

----------
- runDescription: Metabolic stability in Beagle dog liver microsomes assessed as parent compound remaining at 1 uM measured after 60 mins by UPLC-MS/MS analysis
- Format: ADME, Canis lupus familiaris, Microsome
- conditionSummary: read-out: Stability
measure: remaining at 1 h, 1 µM (%)
Record the value in %, omitting the unit from your answer.

Supply remaining at 1 h, 1 µM value. Item: CC(C)NC[C@@H](C(=O)N1CCN(c2ncnc3c2[C@H](C)CC(=O)N3)[C@H]2C[C@H]21)c1ccc(Cl)cc1
53.6

----------
- runDescription: Cmax in NCG mouse xenografted with human LNCaP cells at 25 mg/kg administered once daily for 18 to 21 days and measured upto 10 hrs post last dose by LC-MS/MS analysis
- Assay type: ADME, organism-based
- Set-up: time upper 21 day, time lower 18 day, dose 25 mg/kg
- conditionSummary: in vivo
measure: Cmax
The reply must contain the numeric value and, after it, the unit.

Supply Cmax value. Item: CC(C)NC[C@@H](C(=O)N1CCN(c2ncnc3c2[C@H](C)CC(=O)N3)[C@H]2C[C@H]21)c1ccc(Cl)cc1
1980 ng/mL

----------
- runDescription: AUC (0 to t) in NCG mouse xenografted with human LNCaP cells at 25 mg/kg administered daily once for 18 to 21 days and measured upto 10 hrs post last dose by LC-MS/MS analysis
- Format: ADME, organism-based
- Set-up: time 18-21 day, dose 25 mg/kg
- conditionSummary: in vivo
measure: AUC(0-t) (ng·h/mL)
Record the value in ng·h/mL, omitting the unit from your answer.

Supply AUC(0-t) value. Item: CC(C)NC[C@@H](C(=O)N1CCN(c2ncnc3c2[C@H](C)CC(=O)N3)[C@H]2C[C@H]21)c1ccc(Cl)cc1
13500

----------
- Tested on: PC-3
- runDescription: cells
- conditionSummary: Homo sapiens, PC-3, 72 h
- Description: Antiproliferative activity against human PC-3 habouring PTEN deletion and PIK3CA mutation/amplication assessed as reduction in cell viability incubated for 72 hrs by Cell Titer Glo luminescent assay
measure: IC50 (µM)
Record the value in µM, omitting the unit from your answer.

Enter IC50 (test system PC-3) for CC(C)NC[C@@H](C(=O)N1CCN(c2ncnc3c2[C@H](C)C[C@H]3O)CC1)c1ccc(Cl)cc1 [IPATASERTIB]
3.54

----------
- runDescription: Bioavailability in crab-eating monkey at 6 mg/kg, ig by UPLC-MS/MS analysis
- Format: ADME, organism-based, Macaca fascicularis
- conditionSummary: cynomolgus monkey, in vivo, po
measure: bioavailability (%)
Record the value in %, omitting the unit from your answer.

Supply bioavailability value. Item: CC(C)NC[C@@H](C(=O)N1CCN(c2ncnc3c2[C@H](C)CC(=O)N3)[C@H]2C[C@H]21)c1ccc(Cl)cc1
41.2

----------
- runDescription: AUC (0 to infinity) in crab-eating monkey at 3 mg/kg, iv measured upto 24 hrs by UPLC-MS/MS analysis
- Assay type: ADME, organism-based, Macaca fascicularis
- Parameters: dose 3 mg/kg, time < 24 hrs, route iv
- conditionSummary: cynomolgus monkey, in vivo
measure: AUC(0-inf) (ng·h/mL)
Record the value in ng·h/mL, omitting the unit from your answer.

Supply AUC(0-inf) value. Item: CC(C)NC[C@@H](C(=O)N1CCN(c2ncnc3c2[C@H](C)CC(=O)N3)[C@H]2C[C@H]21)c1ccc(Cl)cc1
1880
